The origin of these recorded values is ChEMBL document CHEMBL1138691.

assay: Ratio of the Ki value for human 5-HT1D receptor versus human 5-HT1F receptor
Quick reference for Selectivity ratio among some compounds
Lab note: record the figure alone, no unit after it.

For orientation, consider the following solved cases.
CN1CCC(c2c[nH]c3ccc(NC(=O)c4ccc(F)cc4)nc23)CC1 :: 960
Cc1oc2ccc(NC(=O)c3ccc(F)cc3)nc2c1CCN(C)C :: 19
CN1CCC(c2coc3ccc(NC(=O)c4c(F)cccc4Cl)nc23)CC1 :: 31
CN1CCC(c2c[nH]c3ccc(NC(=O)c4ccc(F)cc4)cc23)CC1 :: 86
CN1CCC(c2coc3ccc(NC(=O)c4ccc(F)cc4Cl)nc23)CC1 :: 165

Return the recorded Selectivity ratio value; entry: Cc1[nH]c2ccc(NC(=O)c3ccc(F)cc3)cc2c1CCN(C)C
200

Please supply the value of reported Selectivity ratio for the item CN1CCC(c2coc3ccc(NC(=O)c4c(F)cc(F)cc4F)nc23)CC1
62

====

Listed below: Emax values for each entry.
target: Serotonin (5-HT) receptor (Homo sapiens) (UniProt P30939+P41595+Q13639+P28222+P46098+P08908+P28221+P28223+P28335+P28566+P34969+P50406+P47898+A5X5Y0+O95264+Q70Z44+Q8WXA8); experiment: Maximum stimulation of [35S]GTP-gamma-S, binding expressed relative to the maximal effect of 5-hydroxytryptamine; assay type: functional

# count of solved cases: 3
CN1CCC(c2coc3ccc(NC(=O)c4ccc(F)cc4Cl)nc23)CC1 :: 92%
CN1CCC(c2coc3ccc(NC(=O)c4c(F)cccc4Cl)nc23)CC1 :: 87%
CN1CCC(c2coc3ccc(NC(=O)c4c(F)cc(F)cc4F)nc23)CC1 :: 87%

# return recorded Emax for entry CN1CCC(c2coc3ccc(NC(=O)c4ccc(F)cc4)nc23)CC1
88%

====

assay: Ratio of the Ki value for human 5-HT1B receptor versus human 5-HT1F receptor
endpoint: Selectivity ratio
Reply with the value as a number alone.

Cc1oc2ccc(NC(=O)c3ccc(F)cc3)nc2c1CCN(C)C :: 42
CN1CCC(c2coc3ccc(NC(=O)c4c(F)cc(F)cc4F)nc23)CC1 :: 181
CN1CCC(c2coc3ccc(NC(=O)c4c(F)cccc4Cl)nc23)CC1 :: 164
Cc1[nH]c2ccc(NC(=O)c3ccc(F)cc3)cc2c1CCN(C)C :: 130
CN1CCC(c2coc3ccc(NC(=O)c4ccc(F)cc4Cl)nc23)CC1 :: 177
CN1CCC(c2c[nH]c3ccc(NC(=O)c4ccc(F)cc4)nc23)CC1 :: 160

Please turn your attention to the following entry.
Return reported Selectivity ratio. Input compound: CN1CCC(c2c[nH]c3ccc(NC(=O)c4ccc(F)cc4)cc23)CC1
85

====

In this section we review reported Ki values for a set of molecules.
Target: UniProt:P30939
Sequence (P30939 whole entry): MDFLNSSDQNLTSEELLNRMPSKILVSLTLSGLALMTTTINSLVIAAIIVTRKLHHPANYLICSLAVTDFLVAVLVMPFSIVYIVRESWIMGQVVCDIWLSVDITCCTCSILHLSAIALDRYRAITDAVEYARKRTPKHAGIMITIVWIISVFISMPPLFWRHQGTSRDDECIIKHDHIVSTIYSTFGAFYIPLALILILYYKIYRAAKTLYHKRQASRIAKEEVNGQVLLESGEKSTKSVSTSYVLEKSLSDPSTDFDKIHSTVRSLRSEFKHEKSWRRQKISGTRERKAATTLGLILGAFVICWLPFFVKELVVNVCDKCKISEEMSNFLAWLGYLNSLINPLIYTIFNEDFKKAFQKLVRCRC

CN1CCC(c2c[nH]c3ccc(NC(=O)c4ccc(F)cc4)cc23)CC1 :: 1.6 nM
Cc1[nH]c2ccc(NC(=O)c3ccc(F)cc3)cc2c1CCN(C)C :: 8.2 nM

State its Ki for this molecule: CN1CCC(c2coc3ccc(NC(=O)c4ccc(F)cc4Cl)nc23)CC1
3 nM

====

target: 5-hydroxytryptamine receptor 1F (Homo sapiens, UniProt P30939); assay: Concentration required for stimulation of [35S]GTP-gamma-S, binding in mouse LM(tk-1) cells expressing the human 5-hydroxytryptamine 1F receptor
endpoint: EC50 (nM)
Your answer should be a plain number; it is taken to be in nM.

// known answers, use as guide
CN1CCC(c2coc3ccc(NC(=O)c4c(F)cccc4Cl)nc23)CC1 :: 68.7
CN1CCC(c2coc3ccc(NC(=O)c4ccc(F)cc4Cl)nc23)CC1 :: 27.7
CN1CCC(c2coc3ccc(NC(=O)c4c(F)cc(F)cc4F)nc23)CC1 :: 91.7

Check the records and state EC50 for CN1CCC(c2coc3ccc(NC(=O)c4ccc(F)cc4)nc23)CC1
66

====

test: Ratio of the Ki value for human 5-HT1A receptor versus human 5-HT1F receptor
endpoint: Selectivity ratio
Reply briefly: the number, and no unit.

Cc1[nH]c2ccc(NC(=O)c3ccc(F)cc3)cc2c1CCN(C)C :: 32
CN1CCC(c2coc3ccc(NC(=O)c4c(F)cccc4Cl)nc23)CC1 :: 103
CN1CCC(c2coc3ccc(NC(=O)c4ccc(F)cc4Cl)nc23)CC1 :: 47

Next molecule, please.
Note Selectivity ratio for the molecule shown: Cc1oc2ccc(NC(=O)c3ccc(F)cc3)nc2c1CCN(C)C
65

====

experiment: Ratio of the Ki value for human 5-HT1A receptor versus human 5-HT1F receptor
endpoint: Selectivity ratio
Returns: the value as a bare number; no unit string appended.

Worked cases, Selectivity ratio given:
CN1CCC(c2c[nH]c3ccc(NC(=O)c4ccc(F)cc4)cc23)CC1 :: 7
CN1CCC(c2coc3ccc(NC(=O)c4ccc(F)cc4)nc23)CC1 :: 134
CN1CCC(c2c[nH]c3ccc(NC(=O)c4ccc(F)cc4)nc23)CC1 :: 7.3

Let's switch to this compound now.
Specify reported Selectivity ratio for the compound shown: CN1CCC(c2coc3ccc(NC(=O)c4c(F)cc(F)cc4F)nc23)CC1
57
